Target: CB2 receptor (Homo sapiens)
Construct: expressed in transfected cells
Sequence (P34972 whole entry): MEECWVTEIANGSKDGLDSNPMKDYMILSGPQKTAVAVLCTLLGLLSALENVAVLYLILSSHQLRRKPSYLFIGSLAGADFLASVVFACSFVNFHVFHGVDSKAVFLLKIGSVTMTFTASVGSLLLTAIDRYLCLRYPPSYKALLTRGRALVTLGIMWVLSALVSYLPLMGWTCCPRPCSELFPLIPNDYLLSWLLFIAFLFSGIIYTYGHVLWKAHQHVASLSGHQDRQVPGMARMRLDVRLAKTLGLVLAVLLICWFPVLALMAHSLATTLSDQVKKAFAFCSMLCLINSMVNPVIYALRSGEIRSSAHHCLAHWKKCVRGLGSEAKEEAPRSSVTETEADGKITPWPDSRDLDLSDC
Assay Comment: Calcium mobilization assay, agonist mode, CHO expressing CB2 and Gα16
Assay type: cell-based
Setup Conditions: single independent experiment, replicate 3; read-out: CB2 agonist(μM) replicate3
Readout Label: EC50 (µM)
Field: numeric (µM). Do not append units.

Worked set:
>>> data_value("N#Cc1ccccc1COc1ccccc1C=C1SC(=O)N(C2CCCC2)C1=O")
3.2
>>> data_value("CC(C)N1C(=O)SC(=Cc2ccccc2OC(=O)C2CCCCCC2)C1=O")
1.6
>>> data_value("CC(C)N1C(=O)SC(=Cc2ccccc2OCc2ccccc2F)C1=O")
0.886

IN: Requested field: EC50. Item: `CC(C)CN1C(=O)SC(=Cc2ccccc2OC(=O)c2ccccc2F)C1=O`
OUT: 1.44

IN: Requested field: EC50. Item: `CC(C)CN1C(=O)SC(=Cc2ccccc2OCc2ccccc2F)C1=O`
OUT: 1.83

IN: Requested field: EC50. Item: `CC(C)N1C(=O)SC(=Cc2ccccc2OC(=O)C2CC2)C1=O`
OUT: 3.56

* * *

Target: CB1 receptor (Homo sapiens)
Sequence (P21554 whole entry): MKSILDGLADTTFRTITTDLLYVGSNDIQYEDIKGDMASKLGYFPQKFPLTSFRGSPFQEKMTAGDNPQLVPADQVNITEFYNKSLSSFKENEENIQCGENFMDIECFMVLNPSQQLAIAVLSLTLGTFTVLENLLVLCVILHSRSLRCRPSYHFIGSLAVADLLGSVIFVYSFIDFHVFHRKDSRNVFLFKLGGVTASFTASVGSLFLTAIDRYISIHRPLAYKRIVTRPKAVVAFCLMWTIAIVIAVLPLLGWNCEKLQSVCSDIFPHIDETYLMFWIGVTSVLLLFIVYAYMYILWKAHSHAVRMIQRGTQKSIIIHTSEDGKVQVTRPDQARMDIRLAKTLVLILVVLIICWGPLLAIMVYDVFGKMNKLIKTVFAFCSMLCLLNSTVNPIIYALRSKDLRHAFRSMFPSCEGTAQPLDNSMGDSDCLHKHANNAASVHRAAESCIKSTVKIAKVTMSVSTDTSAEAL
Assay Comment: Calcium mobilization assay, agonist mode, CHO expressing CB1 and Gα16
Assay type: cell-based
Setup Conditions: CB1 agonist(μM) replicate3, single independent experiment, replicate 3
Readout Label: EC50 (µM)
Field: numeric (µM). Do not append units.

IN: Requested field: EC50. Item: `CC(C)N1C(=O)SC(=Cc2ccccc2OCCN2CCOCC2)C1=O`
OUT: 1.7

* * *

Target: CB2 receptor (Homo sapiens)
Construct: expressed in transfected cells
Assay Comment: Calcium mobilization assay, agonist mode, CHO expressing CB2 and Gα16
Assay type: cell-based
Setup Conditions: agonist mode
Protocol: Chinese hamster ovarian (CHO) cells collected from the American Type Culture Collection were maintained in Ham’s F-12K (Kaighn’s) supplemented with 100 mg/L streptomycin, 100 mg/L penicillin, and 10% fetal bovine serum (FBS) in a humidified atmosphere of 5% CO2 at 37 °C. […] A solitary colony was obtained, propagated, and assessed using a calcium mobilization assay to verify the function and expression of the transfected genes. […]
Readout Label: SI, selectivity index for the CB2, SI = EC50(CB1)/EC50(CB2)

Worked set:
>>> data_value("CC(C)N1C(=O)SC(=Cc2ccccc2OCCN2CCOCC2)C1=O")
8
>>> data_value("CC(C)N1C(=O)SC(=Cc2ccccc2OC(=O)C2CC2)C1=O")
">2"
>>> data_value("CC(C)CN1C(=O)SC(=Cc2ccccc2OCc2ccccc2C#N)C1=O")
">3"
>>> data_value("CC(C)N1C(=O)SC(=Cc2ccccc2OC(=O)c2ccc(Cl)nc2)C1=O")
">2"
>>> data_value("COc1ccc(C=C2SC(=O)N(C(C)C)C2=O)cc1OC(=O)C(C)(C)CCl")
">3"
>>> data_value("COc1ccc(C=C2SC(=O)N(C(C)C)C2=O)cc1OC(=O)c1cccc(Br)c1")
">3"

IN: Requested field: SI, selectivity index for the CB2, SI = EC50(CB1)/EC50(CB2). Item: `CC(C)N1C(=O)SC(=Cc2ccccc2OCc2ccccc2F)C1=O`
OUT: >27

IN: Requested field: SI, selectivity index for the CB2, SI = EC50(CB1)/EC50(CB2). Item: `CC(C)N1C(=O)SC(=Cc2ccccc2OC(=O)C(C)(C)CCl)C1=O`
OUT: >4

IN: Requested field: SI, selectivity index for the CB2, SI = EC50(CB1)/EC50(CB2). Item: `CC(C)CN1C(=O)S/C(=C\c2ccccc2OC(=O)C(C)(C)CCl)C1=O`
OUT: >6

Ref: paper PMC10623575
